tested on: L1210 leukemia ip in BDF1 mice, survival T/C; assay: NCI In Vivo Anticancer Drug Screen. Data for tumor model L1210 Leukemia (intraperitoneal) in B6D2F1 (BDF1) mice; details: endpoint: mean survival time; dose: 50.0 mg/kg/injection; schedule: Q01DX001 (ip); vehicle: Klucel (hydroxypropylcellulose) (HPC); higher = longer survival
Inconclusive results and toxic doses are left out.
property: T/C

For orientation, consider the following solved cases.
>  <compound>
O=C(O)c1ccccc1Br.[Ni]

>  <property>
T/C

>  <observed_result>
103 % of control

$$$$
>  <compound>
COC1OC(CN(CCOS(C)(=O)=O)CCOS(C)(=O)=O)C2OC(C)(C)OC12 (stereo not given)

>  <property>
T/C

>  <observed_result>
114 % of control

$$$$
>  <compound>
CSC(C#N)S(C)(=O)=O (stereo not given)

>  <property>
T/C

>  <observed_result>
100 % of control

$$$$
>  <compound>
CC1NC(=O)NC1CCCCCC(=O)O (stereo not given)

>  <property>
T/C

>  <observed_result>
98 % of control

$$$$

Continue with the next compound.
-- ask What does the data say about its T/C? Entry: "CN(C1=CC(=O)C(=O)c2ccccc21)c1ccccc1"
-- reply 95 % of control

###

Reported T/C values are given for each entry in this list.
tested on: L1210 leukemia ip in BDF1 mice, survival T/C; assay: NCI In Vivo Anticancer Drug Screen. Data for tumor model L1210 Leukemia (intraperitoneal) in B6D2F1 (BDF1) mice; details: endpoint: mean survival time; dose: 100.0 mg/kg/injection; schedule: Q01DX009 (ip); vehicle: other; higher = longer survival
Inconclusive results and toxic doses are left out.

For orientation, consider the following solved cases.
>  <molecule>
CC(=O)c1cnn(-c2ccccc2)c1C

>  <measurement_target>
L1210 leukemia ip in BDF1 mice, survival T/C

>  <T/C>
96 % of control

$$$$
>  <molecule>
Clc1ncnc2nc[nH]c12

>  <measurement_target>
L1210 leukemia ip in BDF1 mice, survival T/C

>  <T/C>
121 % of control

$$$$
>  <molecule>
O=NC12CCCCC1C(O)c1cc(Cl)cc(Cl)c1O2 (configuration not stated)

>  <measurement_target>
L1210 leukemia ip in BDF1 mice, survival T/C

>  <T/C>
119 % of control

$$$$
>  <molecule>
CCCCOC(=O)/C(=C\c1cccc(OC)c1)NC(=O)c1ccccc1

>  <measurement_target>
L1210 leukemia ip in BDF1 mice, survival T/C

>  <T/C>
89 % of control

$$$$
>  <molecule>
COC1OC2COc3ccccc3OC2C(NC(C)=O)C1O (configuration not stated)

>  <measurement_target>
L1210 leukemia ip in BDF1 mice, survival T/C

>  <T/C>
96 % of control

$$$$

-- ask What does the data say about its T/C? Entry: "COc1cc2c(cc1NC(C)=O)C(=O)CCCC2"
-- reply 95 % of control

-- ask What does the data say about its T/C? Entry: "COc1ccc(O)c(Br)c1"
-- reply 97 % of control

###

Reported T/C values are given for each entry in this list.
tested on: L1210 leukemia ip in BDF1 mice, survival T/C; assay: NCI In Vivo Anticancer Drug Screen. Data for tumor model L1210 Leukemia (intraperitoneal) in B6D2F1 (BDF1) mice; conditions: endpoint: mean survival time; dose: 400.0 mg/kg/injection; schedule: Q04DX003 (ip); vehicle: Klucel (hydroxypropylcellulose) (HPC); higher = longer survival
Inconclusive results and toxic doses are left out.

For orientation, consider the following solved cases.
>  <molecule>
Cc1ccc(NC(=O)c2c(Cl)c(Cl)c(Cl)c(Cl)c2C(=O)O)cc1Cl

>  <T/C>
96 % of control

$$$$
>  <molecule>
CCCCCCCCCCCCCCCCOc1ccc(C(=S)N2CCOCC2)cc1Cl

>  <T/C>
86 % of control

$$$$
>  <molecule>
COc1cc(OC)cc(OC)c1

>  <T/C>
97 % of control

$$$$
>  <molecule>
COc1cc(N=CN(C)C)cc(OC)c1OC

>  <T/C>
93 % of control

$$$$
>  <molecule>
O=c1[nH][nH]c(Cc2ccccc2)c1-c1ccccc1

>  <T/C>
101 % of control

$$$$

-- ask What does the data say about its T/C? Entry: "COc1ccc(NC(=O)Nc2onc(C)c2C)c(Cl)c1"
-- reply 88 % of control
